B1: 6NMW (parent)
chain: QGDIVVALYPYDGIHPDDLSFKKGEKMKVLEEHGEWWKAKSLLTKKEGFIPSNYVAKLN

Variants of: B1
assay.method.text: folding stability dG (cDNA display proteolysis); higher = more stable
cond: PBS, room temperature
param class (str): category from folding stability dG; see ranges lower: < 3 kcal/mol; middle: ≥ 3 kcal/mol and < 4 kcal/mol; upper: ≥ 4 kcal/mol

Some solved cases for reference:
[
  {
    "mutation.code": "K57L",
    "group.label": "middle"
  },
  {
    "mutation.code": "N59F",
    "group.label": "middle"
  },
  {
    "mutation.code": "F49L",
    "group.label": "middle"
  },
  {
    "mutation.code": "D18H",
    "group.label": "upper"
  },
  {
    "mutation.code": "L8R",
    "group.label": "lower"
  },
  {
    "mutation.code": "L8N",
    "group.label": "lower"
  }
]

Bin? D18W
middle

# bin label for P10G
middle

Into which bin does this variant go? H33K
middle

Band for F49I ?
lower

Textbook exercise: identify the category of the variant given here, V6Q , according to its measured value.
lower
